Endpoint Name: intrinsic clearance, human liver microsomes

Worked cases, answers included:
# Compound, Data Value
measured = [
    ("CSc1ccccc1NC(=O)CN1CCCC(c2nc3ccccc3o2)C1 (stereo unspecified)", "1120 mL/min/kg"),
    ("Nc1ccc(Oc2ccccc2F)nc1", "≤ 4.74 mL/min/kg"),
    ("Cc1ccncc1-c1ccc(-c2ccn[nH]2)cc1", "10.5 mL/min/kg"),
    ("Cc1c(F)cccc1NC(=O)CN1[C@H](Cc2ccccc2)C[C@]2(C)NC(=O)CCC[C@H]12", "267 mL/min/kg"),
    ("C#CCNC(=O)c1cc(C(C)C)nn1CC", "≤ 4.74 mL/min/kg"),
]

Then this compound:
// returns reported intrinsic clearance, human liver microsomes for input COc1cccc(F)c1NC(=O)N1CCC(N2CC=CC2)CC1
≤ 4.74 mL/min/kg

* * *

Would you kindly list intrinsic clearance, human liver microsomes for each of these compounds?
One number for each entry, in mL/min/kg.

// solved cases for intrinsic clearance, human liver microsomes follow
# Sample Smiles, Data Value
data = [
    ("CNC(=O)c1ccc(Nc2ncc(C(F)(F)F)c(NCc3nccnc3N(C)S(C)(=O)=O)n2)cc1", 28.1),
    ("O=C1OCCN1CCN1CCC(c2cc3ccccc3[nH]2)CC1", 11.1),
]

Look at each compound and report its intrinsic clearance, human liver microsomes.
1. Fc1ccc(-c2ccc3c(c2)[nH]c2ccncc23)cn1
2. COCCNc1c(C)c(C)nc2cc(-c3nccn3C)nn12
3. C[C@@H](CN1CCC2(CC1)C(=O)NCN2c1cccc(F)c1)NC(=O)c1ccc(Br)cc1
4. O=C(Nc1ccncc1)[C@H]1CCCN(S(=O)(=O)c2ccc(Cl)cc2)C1

16.8
21.1
88.8
22.2

Hi, could you look up intrinsic clearance, human liver microsomes for each item in my list?
1. CN(C)c1ccc2c(c1)Sc1cc(N(C)C)ccc1N2
2. N#Cc1ccc2nc([C@H]3CCN(C4CCC4)C3)[nH]c2c1
3. CC1(C)CN(CC(=O)NCC#N)c2cccc(Cl)c21

1: 31.8; 2: 7.26; 3: 21.2

Please state intrinsic clearance, human liver microsomes for every compound in the list that follows.
1. Cc1cc2occ(CC(=O)NC3CCN(C)CC3)c2cc1C(C)C
2. O=c1c2ccncc2ncn1[C@H]1CCN(Cc2ccccc2)C1
3. O=C(CN1CCC(n2c(=O)[nH]c3ccccc32)CC1)N1CCc2ccccc21
4. Clc1ccc(CSc2nc(-c3ccccc3)c[nH]2)cn1
5. Cc1ccccc1-c1nc(Cn2ccnc2C(C)C)c(C)o1

13.9
22.6
10.4
229
310

Below is a list of compounds. For each, state its recorded intrinsic clearance, human liver microsomes.
1. Cc1cccc(NC(=O)c2noc3c2CCCC3)n1
2. Cc1cc(NC(=O)[C@H](C)N(C)C)c2ccccc2n1

197
9.63

* * *

Please provide measured MDR1-MDCK efflux ratio for the entries that follow.
One number for each entry.

Take a look at these entries with their results.
# Compound, MDR1-MDCK efflux ratio
rows = [
    ("COc1ccccc1NC(=O)CN1CCCN(c2nc(C)cs2)CC1", 0.716),
    ("CC(C)(C)OC(=O)c1ccc(-n2[nH]cc(-n3ccnn3)c2=O)nc1", 1.19),
    ("COc1c(C)cnc(CN(C)S(N)(=O)=O)c1C", 1.91),
    ("O=C(NCCc1ccc2c(c1)OCO2)Nc1ccncc1", 3.6),
    ("O=S(=O)(Nc1cccc(-c2nc3ccccc3[nH]2)c1)c1ccc(Cl)cc1", 10.7),
    ("Fc1ccccc1CNc1nc(-c2ccccc2)no1", 0.605),
    ("O=C(c1cccc2ccccc12)N1CCCC(C(=O)N2CCc3ccccc3C2)C1 (stereo unspecified)", 5.83),
    ("CN1CCN(c2oc(-c3cccc4ccccc34)nc2C#N)CC1", 0.363),
]

Record MDR1-MDCK efflux ratio per entry; entries follow.
1. CCc1cc2c(cc1N1CCC(N3CCOCC3)CC1)C(C)(C)c1[nH]c3cc(C#N)ccc3c1C2=O
2. Cn1c(-c2ccc(F)cc2)cnc1NC(=O)CCC(=O)N1CC(=O)Nc2ccccc21
3. Cc1noc(COc2cccnc2C)n1
4. CN(CC(=O)NC1(C#N)CCCCC1)c1cccc(C#N)c1

11.8
48.2
0.706
10.4

Source listed as the Biogen ADME set (Fang et al. 2023).
